System: DU145
Experiment: Euclidean distance of Cell Painting phenotypic profile (signed KS, 77 features) to DMSO centroid (dimensionless distance); 5 or 10 uM (library dependent); higher = stronger phenotypic change vs DMSO (phenoactivity)
Conditions: 48 h
Where a name gives a salt, the structure may show the parent alone.
assay readout: Euclidean distance
One number for each entry.

Examples from the recorded data:
1. CC(NCCC(c1ccccc1)c1ccccc1)c1ccccc1 (centres undefined) [Fendiline hydrochloride] :: 1.45
2. CN1CCOC(c2ccccc2)c2ccccc2C1 (centres undefined) [Nefopam HCl] :: 0.813
3. N[C@@H]1c2cccnc2[C@H](OC(=O)N2CCC(n3c(=O)[nH]c4ncccc43)CC2)CC[C@H]1c1cccc(F)c1F :: 0.986
4. OC[C@H]1O[C@@H](O[C@@H]2[C@@H](CO)OC(O)(CO)[C@H]2O)[C@H](O)[C@@H](O)[C@H]1O (mixture of isomers) [Lactulose] :: 0.75
5. COc1ccc(-c2ccc3c(N4CCOCC4)nc(N4C[C@@H](C)O[C@@H](C)C4)nc3n2)cc1CO :: 1.96

For every record below, what is its Euclidean distance?
1. O=c1sn(-c2cccc3ccccc23)c(=O)n1Cc1ccccc1 [Tideglusib]
2. O=c1c(-c2ccc(O)cc2)coc2cc(O)cc(O)c12 [Genistein]
3. O=C1C(CC[S+]([O-])c2ccccc2)C(=O)N(c2ccccc2)N1c1ccccc1 (racemic) [(+/-)-Sulfinpyrazone]
4. COc1cc2nccc(Oc3ccc(NC(=O)NC4CC4)c(Cl)c3)c2cc1C(N)=O [lenvatinib Mesylate]
5. CCC[C@@H](C=O)NC(=O)[C@H](CC(C)C)NC(=O)[C@H](CC(C)C)NC(=O)OCc1ccccc1
6. C=C1[C@H](CO)[C@@H](O)C[C@@H]1n1cnc2c(=O)[nH]c(N)nc21 [Entecavir]

1: 0.768; 2: 1.14; 3: 1.38; 4: 1.71; 5: 5.17; 6: 1.05

For every record below, what is its Euclidean distance?
1. CC1(C)CC(=O)c2c(C(F)(F)F)nn(-c3ccc(C(N)=O)c(N[C@H]4CC[C@H](O)CC4)c3)c2C1
2. CC(C)NC(=N)NC(=N)Nc1ccc(Cl)cc1 [Proguanil]
3. O=C1NC(=O)C(=Cc2ccc(-c3ccc(F)cc3)o2)S1 (stereo in doubt)
4. NCCc1ccc(O)c(O)c1 [Dopamine HCl]
5. CCN(CC)C(=O)N1CCN(C)CC1 [Diethylcarbamazine citrate]
6. O=C1NC(=O)/C(=C/c2ccc3nccc(-c4ccncc4)c3c2)S1
7. CCCCCCCCN=C(N)NC(N)=NCc1ccc(Cl)c(Cl)c1 [Olanexidine Hydrochloride semihydrate]
8. CC(C)(O)[C@H]1CC[C@@](C)([C@H]2[C@@H](O)C[C@@]3(C)[C@@H]4C[C@H](O[C@@H]5O[C@H](CO)[C@@H](O)[C@H](O)[C@H]5O)[C@H]5C(C)(C)[C@@H](O[C@@H]6OC[C@@H](O)[C@H](O)[C@H]6O)CC[C@@]56C[C@@]46CC[C@]23C)O1 [Astragaloside A]

[3.09, 0.798, 1.43, 0.944, 0.703, 2, 6.25, 3.2]

###

System: DU145
Test: Euclidean distance of Cell Painting phenotypic profile (signed KS, 77 features) to DMSO centroid (dimensionless distance); 5 or 10 uM (library dependent); higher = stronger phenotypic change vs DMSO (phenoactivity)
Details: 48 h
Where a name gives a salt, the structure may show the parent alone.
Kindly state Euclidean distance for each of the entries shown.
One number for each entry.

Examples from the recorded data:
1) CCCCNc1ccc(C(=O)OCCOCCOCCOCCOCCOCCOCCOCCOCCOC)cc1 [Benzonatate] :: 0.781
2) CC(=O)O/N=C1\C(=O)N(Cc2cc(Cl)ccc2Cl)c2ccc(Cl)cc21 :: 0.687
3) CN(C)C(=O)Nc1cccc(-c2ccc(N(C)C)cc2)c1 [Atglistatin] :: 1.1
4) CCN(CC)C(=O)C1(c2ccccc2)CC1CN (centres undefined) [Milnacipran HCl] :: 0.974
5) Cc1cc(-c2ccccc2)nnc1NCCN1CCOCC1 [Minaprine dihydrochloride] :: 0.918

For every record below, what is its Euclidean distance?
1. Nc1ccn([C@@H]2O[C@H](CO)[C@@H](O)C2(F)F)c(=O)n1 [Gemcitabine]
2. Cc1[nH]c(/C=C2\C(=O)Nc3ccccc32)c(C)c1CCC(=O)O [TSU-68 (SU6668. Orantinib)]
3. C#C[C@]1(O)CC[C@H]2[C@@H]3CCC4=CCCC[C@@H]4[C@H]3CC[C@@]21C [Lynestrenol]
4. CNC(=O)Nc1ccc(-c2nc(N3CC4CCC(C3)O4)c3cnn(C4CCC5(CC4)OCCO5)c3n2)cc1

[3.26, 0.85, 1.48, 2.25]

The reported measurements were obtained from the supplement of paper PMC10127200.
